Target: human kappa opioid receptor (Homo sapiens, UniProt P41145)
Construct: expressed in transfected cells; host or cells: Chinese hamster ovary cells (CHO-hKOR), membranes
Sequence (P41145 whole entry): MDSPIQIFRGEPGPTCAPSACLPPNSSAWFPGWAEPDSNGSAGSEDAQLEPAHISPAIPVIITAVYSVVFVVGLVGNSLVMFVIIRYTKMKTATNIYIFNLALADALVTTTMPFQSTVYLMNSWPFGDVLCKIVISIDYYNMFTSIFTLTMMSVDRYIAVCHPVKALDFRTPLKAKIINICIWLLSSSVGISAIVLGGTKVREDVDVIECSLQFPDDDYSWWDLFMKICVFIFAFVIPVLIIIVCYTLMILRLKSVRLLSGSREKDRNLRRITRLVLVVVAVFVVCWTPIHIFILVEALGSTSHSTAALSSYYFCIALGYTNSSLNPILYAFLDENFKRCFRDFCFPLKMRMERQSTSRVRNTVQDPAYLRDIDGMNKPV
Assay notes: biochemical
Format: binding
pKi: −log10 of the molar value.
Outcome measure: pKi

The compound listed as CCOC(=O)C1CC(OC(C)=O)C(=O)C2C1(C)CCC1C(=O)OC(c3ccoc3)CC12C (stereo not shown) [Compound 33] shows pKi equal to < 5.00

The compound listed as CCCCCOC(=O)C1CC(OC(C)=O)C(=O)C2C1(C)CCC1C(=O)OC(c3ccoc3)CC12C (stereo not shown) [Compound 40] shows pKi equal to < 5.00

The compound listed as COC(=O)[C@@H]1C[C@H](OC(=O)CN(C)C)C(=O)C2[C@@]1(C)CC[C@H]1C(=O)O[C@H](c3ccoc3)C[C@]21C (stereo partly shown) [Compound 27] shows pKi equal to < 5.00

The compound listed as COC(=O)C1CC(N(C)C)C(=O)C2C1(C)CCC1C(=O)OC(c3ccoc3)CC12C (stereo not shown) [Compound 211a, 2-(N,N-dimethyl)-salvinorin] shows pKi equal to 6.77
